Items are presented alongside their recorded RAMPO Score.
target: T1, His-tagged P3028 peptide (PGE73) (human); experiment: PEPSCAN ELISA, peptide on card
T1 construct: albumin-derived peptide, in solution at 0.5 ug/mL; not shown: His-tag
T1 peptide: VFDEFKPLVEEPQNLIK

Examples from the recorded data:
KKLDTFFVKGSLFTER [SEQ ID NO: 334 KKLDTFFVKGSLFTER]	495
KKLDTFFVKLTLFTER [SEQ ID NO: 349 KKLDTFFVKLTLFTER]	520

Turning now to a further binder:
**Query** Assign RAMPO Score to the following record: KKLDTPFVKLSLFTER [SEQ ID NO: 317 KKLDTPFVKLSLFTER]
**Result** 497

Origin of the recorded values: patent US20170298096A1
